targetUnderTest: human β3 adrenergic receptors (Homo sapiens)
Sequence (P13945 whole entry): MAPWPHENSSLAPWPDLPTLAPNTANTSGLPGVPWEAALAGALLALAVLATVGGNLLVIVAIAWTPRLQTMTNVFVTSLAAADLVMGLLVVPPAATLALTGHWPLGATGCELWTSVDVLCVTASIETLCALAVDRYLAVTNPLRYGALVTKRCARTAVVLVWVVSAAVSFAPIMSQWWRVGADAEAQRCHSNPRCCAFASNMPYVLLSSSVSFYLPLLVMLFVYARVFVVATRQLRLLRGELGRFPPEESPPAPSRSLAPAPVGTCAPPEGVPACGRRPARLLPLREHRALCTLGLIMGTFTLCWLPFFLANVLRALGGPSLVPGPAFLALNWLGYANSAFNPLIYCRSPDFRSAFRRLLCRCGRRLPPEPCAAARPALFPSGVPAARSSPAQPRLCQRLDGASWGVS
experimentalProtocol: cAMP elevation in CHO cells transfected with human β3 adrenergic receptor
Assay type: cell-based
reportedConditions: 10 min, CHO cells expressing human β3 receptor, compound at 10 nM, 37° C., relative to isoproterenol at 10 μM, read-out: β3, % of isoproterenol activity (increase in cAMP)
Item-by-item account of activation at 0.01 µM
Report the figure in % without appending any unit label.

molecule: C[C@H](Cc1ccc2c(c1)OC(C(=O)OCc1ccccc1)C(C(=O)OCc1ccccc1)O2)NC[C@H](O)c1cccc(Cl)c1 (stereo partly shown)
activation at 0.01 µM / %: 27

API: value(readout= activation at 0.01 µM, system= human β3 adrenergic receptors (Homo sapiens), query= CC(C)OC(=O)C1Oc2cc(C[C@@H](C)NC[C@H](O)c3cccc(Cl)c3)ccc2OC1C(=O)O (stereo partly shown) )
50

API: value(readout= activation at 0.01 µM, system= human β3 adrenergic receptors (Homo sapiens), query= CCCCCCCCOC(=O)C1Oc2ccc(C[C@@H](C)NC[C@H](O)c3cccc(Cl)c3)cc2OC1C(=O)OCCCCCCCC (stereo partly shown) )
97

API: value(readout= activation at 0.01 µM, system= human β3 adrenergic receptors (Homo sapiens), query= CCCCOC(=O)C1Oc2ccc(C[C@@H](C)NC[C@H](O)c3cccc(Cl)c3)cc2OC1C(=O)OCCCC (stereo partly shown) )
51

API: value(readout= activation at 0.01 µM, system= human β3 adrenergic receptors (Homo sapiens), query= CC(C)OC(=O)C1Oc2ccc(C[C@@H](C)NC[C@H](O)c3cccc(Cl)c3)cc2OC1C(=O)OC(C)C (stereo partly shown) )
4

API: value(readout= activation at 0.01 µM, system= human β3 adrenergic receptors (Homo sapiens), query= C[C@H](Cc1ccc2c(c1)OC(C(=O)OC1CCCCC1)C(C(=O)OC1CCCCC1)O2)NC[C@H](O)c1cccc(Cl)c1 (stereo partly shown) )
3

API: value(readout= activation at 0.01 µM, system= human β3 adrenergic receptors (Homo sapiens), query= C[C@H](Cc1ccc2c(c1)OC(C(=O)OC1CCCC1)C(C(=O)OC1CCCC1)O2)NC[C@H](O)c1cccc(Cl)c1 (stereo partly shown) )
3

Data origin, for the record: patent US5965607A
